# assay info: NIH-3T3 fibroblast cytotoxicity, dose response, cytotoxicity control, cell-based, fluorescence, Alamar Blue, secondary assay (AID 2327);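 further: NIH-3T3 mouse fibroblasts cultured with fluconazole at 8 µg/mL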
# Assay type: functional
Activity calls are given as the source filed them. No stated cut-off is given here; in the data, actives have a measured EC50 and inactives only a lower limit.
// allowed return values: TRUE for active, FALSE for inactive

QUERY: Test call, this molecule: `NC(=S)n1[nH]c(-c2ccc([N+](=O)[O-])cc2)c(/N=N/c2cccc([N+](=O)[O-])c2)c1=O`
RESULT: FALSE

QUERY: # lookup: test call for COc1cc2c(cc1O)CC[n+]1cc3c(OC)c(OC)ccc3cc1-2 [JATRORRHIZINE]
RESULT: FALSE

QUERY: Please state the recorded outcome for this molecule: `CCc1nc(Nc2ccncc2)c2oc3ccccc3c2n1`
RESULT: FALSE

QUERY: Answer briefly: the call reported for `O=C(Nc1nnc(SCc2ccc(F)cc2)s1)c1ccccn1` in this assay.
RESULT: TRUE

QUERY: Returns: the outcome recorded for CCOC(=O)CNC(c1ccccc1)c1cc(Br)ccc1NC(=O)CCN1CCOCC1 (configuration not stated) in this assay.
RESULT: TRUE

QUERY: Called result for `COc1ccc(-n2nc(C(=O)NCC(=O)N3CCN(c4ccc(F)cc4)CC3)c3ccccc3c2=O)c(OC)c1`
RESULT: FALSE
